Listing of recorded DC50 by entry.
tgt: IKZF2 (Homo sapiens, UniProt Q96SW2+Q9UKS7)
Construct: CRISPR/Cas9—mediated insertion of the HiBiT peptide tag (Promega™) to the N-terminus of the IKZF2 gene locus; endogenous in cells; host or cells: MOLT4 cells, with CRISPR/Cas9 knock-in of HiBiT at the endogenous IKZF2 locus
Sequence (Q9UKS7 whole entry): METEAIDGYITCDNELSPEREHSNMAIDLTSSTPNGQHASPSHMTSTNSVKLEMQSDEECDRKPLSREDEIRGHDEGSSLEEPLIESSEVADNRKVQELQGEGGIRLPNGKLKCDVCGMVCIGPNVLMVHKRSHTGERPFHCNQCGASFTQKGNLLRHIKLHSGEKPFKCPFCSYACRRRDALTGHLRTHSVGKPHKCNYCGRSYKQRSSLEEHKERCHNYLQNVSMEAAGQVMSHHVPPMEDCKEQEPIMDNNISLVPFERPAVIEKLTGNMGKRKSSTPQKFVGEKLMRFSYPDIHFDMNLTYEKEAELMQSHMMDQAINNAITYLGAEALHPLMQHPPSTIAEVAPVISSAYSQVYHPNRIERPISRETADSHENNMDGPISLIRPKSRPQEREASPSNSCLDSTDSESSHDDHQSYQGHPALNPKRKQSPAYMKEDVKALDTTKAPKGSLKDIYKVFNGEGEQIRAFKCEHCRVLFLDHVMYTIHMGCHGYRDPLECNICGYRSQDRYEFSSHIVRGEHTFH
Sequence (Q96SW2 whole entry): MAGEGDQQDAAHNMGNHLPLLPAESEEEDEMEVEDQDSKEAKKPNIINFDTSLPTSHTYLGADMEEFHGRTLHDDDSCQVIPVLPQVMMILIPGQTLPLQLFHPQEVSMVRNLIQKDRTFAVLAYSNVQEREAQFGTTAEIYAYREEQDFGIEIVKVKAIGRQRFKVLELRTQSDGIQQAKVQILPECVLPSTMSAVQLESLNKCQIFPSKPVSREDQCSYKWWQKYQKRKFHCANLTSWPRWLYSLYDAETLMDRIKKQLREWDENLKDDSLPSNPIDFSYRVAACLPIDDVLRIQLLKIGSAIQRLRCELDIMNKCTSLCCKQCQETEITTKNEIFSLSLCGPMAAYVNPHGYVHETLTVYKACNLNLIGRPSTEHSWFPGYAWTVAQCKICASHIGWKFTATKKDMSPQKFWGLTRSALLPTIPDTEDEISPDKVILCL
Sequence (Q16531 whole entry partner): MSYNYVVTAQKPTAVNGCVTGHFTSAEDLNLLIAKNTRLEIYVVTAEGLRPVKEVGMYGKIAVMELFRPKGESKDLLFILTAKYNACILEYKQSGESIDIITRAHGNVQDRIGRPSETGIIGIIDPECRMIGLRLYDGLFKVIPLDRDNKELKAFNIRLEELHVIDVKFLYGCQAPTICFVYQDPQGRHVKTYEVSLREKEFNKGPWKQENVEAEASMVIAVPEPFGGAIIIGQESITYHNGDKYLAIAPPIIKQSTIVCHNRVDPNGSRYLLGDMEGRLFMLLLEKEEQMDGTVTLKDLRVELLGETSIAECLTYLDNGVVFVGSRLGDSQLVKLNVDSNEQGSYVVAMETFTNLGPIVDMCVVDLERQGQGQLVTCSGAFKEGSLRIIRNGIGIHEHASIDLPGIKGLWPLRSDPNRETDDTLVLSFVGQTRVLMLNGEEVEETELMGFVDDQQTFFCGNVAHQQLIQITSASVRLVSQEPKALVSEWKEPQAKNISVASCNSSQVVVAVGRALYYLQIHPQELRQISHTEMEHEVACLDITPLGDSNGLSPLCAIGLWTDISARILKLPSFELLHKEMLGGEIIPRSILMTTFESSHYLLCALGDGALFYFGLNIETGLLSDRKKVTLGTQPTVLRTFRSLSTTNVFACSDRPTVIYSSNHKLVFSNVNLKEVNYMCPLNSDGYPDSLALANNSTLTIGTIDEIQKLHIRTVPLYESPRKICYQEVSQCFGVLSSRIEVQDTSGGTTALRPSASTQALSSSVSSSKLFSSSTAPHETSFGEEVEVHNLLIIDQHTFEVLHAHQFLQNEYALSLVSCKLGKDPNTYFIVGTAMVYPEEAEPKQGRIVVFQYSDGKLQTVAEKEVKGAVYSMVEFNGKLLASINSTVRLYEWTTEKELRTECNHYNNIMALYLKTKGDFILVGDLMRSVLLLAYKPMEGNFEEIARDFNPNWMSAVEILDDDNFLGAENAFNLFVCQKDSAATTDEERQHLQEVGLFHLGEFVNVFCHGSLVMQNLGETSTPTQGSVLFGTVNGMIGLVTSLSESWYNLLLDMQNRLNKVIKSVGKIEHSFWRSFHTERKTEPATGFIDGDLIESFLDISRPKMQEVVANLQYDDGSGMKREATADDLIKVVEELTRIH
protocol_notes: HiBit-IKZF2 assay (HiBiT-Helios degradation in MOLT4 cells)
Type: cell-based
test_parameters: concentration at which 50% of HiBiT-Helios degradation was achieved
Source text: The HiBiT protein tagging system was applied to MOLT4 cells via a CRISPR/Cas9—mediated insertion of the HiBiT peptide tag (Promega™) to the N-terminus of the IKZF2 gene locus (Neon™ Transfection System). […] At the indicated timepoints, the Nano-Glo® HiBiT Lytic Detection System (Promega™) was utilized for detecting bioluminescence of the HiBiT tag in treated cells: abundance of the tag is proportionate to the level of luminescence. […]

Use the examples below as a reference point.
- molecule: "O=C1CCC(N2Cc3cc(C4(O)CCN(Cc5cccc(F)c5)CC4)ccc3C2=O)C(=O)N1 (centres unmarked)"
  DC50: "< 10 nM"
- molecule: "O=C1CCC(N2Cc3cc(C4CCN(Cc5cccnc5Oc5ccccc5)CC4)ccc3C2=O)C(=O)N1 (centres unmarked)"
  DC50: "30 to 150 nM"
- molecule: "O=C1CCC(N2Cc3cc(C4CCN(Cc5cccc(Nc6ccc(F)cn6)c5)CC4)ccc3C2=O)C(=O)N1 (centres unmarked)"
  DC50: "< 10 nM"

Form entry - test system: IKZF2 (Homo sapiens, UniProt Q96SW2+Q9UKS7); read-out: DC50; molecule: O=C1CCC(N2Cc3cc(C4(O)CCN(Cc5ccc6ncn(-c7ccccn7)c(=O)c6c5)CC4)ccc3C2=O)C(=O)N1 (centres unmarked)
< 10 nM

Form entry - test system: IKZF2 (Homo sapiens, UniProt Q96SW2+Q9UKS7); read-out: DC50; molecule: O=C1CCC(N2Cc3cc(C4(O)CCN(Cc5ccc(F)cc5)CC4)ccc3C2=O)C(=O)N1 (centres unmarked)
< 10 nM

Form entry - test system: IKZF2 (Homo sapiens, UniProt Q96SW2+Q9UKS7); read-out: DC50; molecule: O=C1CCC(N2Cc3cc(C4(O)CCN(Cc5cccc6ccccc56)CC4)ccc3C2=O)C(=O)N1 (centres unmarked)
< 10 nM

Form entry - test system: IKZF2 (Homo sapiens, UniProt Q96SW2+Q9UKS7); read-out: DC50; molecule: O=C1CCC(N2Cc3cc(C4CCN(Cc5ccc6c(c5)C(=O)N(c5cccc(O)c5)C6)CC4)ccc3C2=O)C(=O)N1 (centres unmarked)
< 10 nM

Form entry - test system: IKZF2 (Homo sapiens, UniProt Q96SW2+Q9UKS7); read-out: DC50; molecule: Cc1ccnc(Nc2cccc(CN3CCC(c4ccc5c(c4)CN(C4CCC(=O)NC4=O)C5=O)CC3)c2F)n1 (centres unmarked)
< 10 nM

Form entry - test system: IKZF2 (Homo sapiens, UniProt Q96SW2+Q9UKS7); read-out: DC50; molecule: O=C1CCC(N2Cc3cc(C4CCN(Cc5ccnc(C(=O)Nc6ccccn6)c5)CC4)ccc3C2=O)C(=O)N1 (centres unmarked)
10 to 30 nM

Form entry - test system: IKZF2 (Homo sapiens, UniProt Q96SW2+Q9UKS7); read-out: DC50; molecule: O=C1CCC(N2Cc3cc(C4(O)CCN(Cc5ccc(C6CC6)cc5)CC4)ccc3C2=O)C(=O)N1 (centres unmarked)
< 10 nM

Form entry - test system: IKZF2 (Homo sapiens, UniProt Q96SW2+Q9UKS7); read-out: DC50; molecule: O=C1CCC(N2Cc3cc(C4CCN(Cc5ccnc(Nc6ccccc6)n5)CC4)ccc3C2=O)C(=O)N1 (centres unmarked)
10 to 30 nM

Form entry - test system: IKZF2 (Homo sapiens, UniProt Q96SW2+Q9UKS7); read-out: DC50; molecule: O=C1CCC(N2Cc3cc(C4CCN(Cc5cccc(Nc6ncc(F)cn6)c5F)CC4)ccc3C2=O)C(=O)N1 (centres unmarked)
30 to 150 nM

Form entry - test system: IKZF2 (Homo sapiens, UniProt Q96SW2+Q9UKS7); read-out: DC50; molecule: O=C1CCC(N2Cc3cc(C4CCN(Cc5ccc6c(c5)C(=O)N(c5cnsc5)C6)CC4)ccc3C2=O)C(=O)N1 (centres unmarked)
< 10 nM

Form entry - test system: IKZF2 (Homo sapiens, UniProt Q96SW2+Q9UKS7); read-out: DC50; molecule: O=C1CCC(N2Cc3cc(C4(O)CCN(Cc5ccnc(Nc6ccccc6)n5)CC4)ccc3C2=O)C(=O)N1 (centres unmarked)
< 10 nM

Form entry - test system: IKZF2 (Homo sapiens, UniProt Q96SW2+Q9UKS7); read-out: DC50; molecule: O=C1CCC(N2Cc3cc(C4(O)CCN(Cc5cccc(F)c5F)CC4)ccc3C2=O)C(=O)N1 (centres unmarked)
< 10 nM

Form entry - test system: IKZF2 (Homo sapiens, UniProt Q96SW2+Q9UKS7); read-out: DC50; molecule: O=C1CCC(N2Cc3cc(C4CCN(Cc5ccc(C(=O)Nc6ccccc6)nc5)CC4)ccc3C2=O)C(=O)N1 (centres unmarked)
30 to 150 nM

Form entry - test system: IKZF2 (Homo sapiens, UniProt Q96SW2+Q9UKS7); read-out: DC50; molecule: O=C1CCC(N2Cc3cc(C4CCN(Cc5ccccc5C(=O)Nc5ccccc5)CC4)ccc3C2=O)C(=O)N1 (centres unmarked)
10 to 30 nM

Form entry - test system: IKZF2 (Homo sapiens, UniProt Q96SW2+Q9UKS7); read-out: DC50; molecule: O=C1CCC(N2Cc3cc(C4(O)CCN(Cc5ccc6c(c5)CCCO6)CC4)ccc3C2=O)C(=O)N1 (centres unmarked)
< 10 nM

* * *

tgt: IKZF2 (Homo sapiens, UniProt Q96SW2+Q9UKS7)
Construct: CRISPR/Cas9—mediated insertion of the HiBiT peptide tag (Promega™) to the N-terminus of the IKZF2 gene locus; endogenous in cells; host or cells: MOLT4 cells, with CRISPR/Cas9 knock-in of HiBiT at the endogenous IKZF2 locus
protocol_notes: HiBit-IKZF2 assay (HiBiT-Helios degradation in MOLT4 cells)
Format: cell-based
test_parameters: MOLT-4, extent of degradation from highest to lowest concentration, 10 μM to 0.00026 μM, read-out: Dmax
From the text: The HiBiT protein tagging system was applied to MOLT4 cells via a CRISPR/Cas9—mediated insertion of the HiBiT peptide tag (Promega™) to the N-terminus of the IKZF2 gene locus (Neon™ Transfection System). […] At the indicated timepoints, the Nano-Glo® HiBiT Lytic Detection System (Promega™) was utilized for detecting bioluminescence of the HiBiT tag in treated cells: abundance of the tag is proportionate to the level of luminescence. […]
reported_metric: Dmax

Use the examples below as a reference point.
- molecule: "O=C1CCC(N2Cc3cc(C4(O)CCN(Cc5ccc(Cl)cc5)CC4)ccc3C2=O)C(=O)N1 (centres unmarked)"
  tgt: "IKZF2 (Homo sapiens, UniProt Q96SW2+Q9UKS7)"
  Dmax: "> 70%"
- molecule: "O=C1CCC(N2Cc3cc(C4CCN(Cc5ccc6c(c5)C(=O)N(c5ccns5)C6)CC4)ccc3C2=O)C(=O)N1 (centres unmarked)"
  tgt: "IKZF2 (Homo sapiens, UniProt Q96SW2+Q9UKS7)"
  Dmax: "> 70%"
- molecule: "O=C1CCC(N2Cc3cc(C4(O)CCN(Cc5ccccc5F)CC4)ccc3C2=O)C(=O)N1 (centres unmarked)"
  tgt: "IKZF2 (Homo sapiens, UniProt Q96SW2+Q9UKS7)"
  Dmax: "> 70%"
- molecule: "Cc1cccc(CN2CCC(O)(c3ccc4c(c3)CN(C3CCC(=O)NC3=O)C4=O)CC2)c1 (centres unmarked)"
  tgt: "IKZF2 (Homo sapiens, UniProt Q96SW2+Q9UKS7)"
  Dmax: "> 70%"
- molecule: "O=C1CCC(N2Cc3cc(C4(O)CCN(Cc5ccc6c(c5)OC(F)(F)O6)CC4)ccc3C2=O)C(=O)N1 (centres unmarked)"
  tgt: "IKZF2 (Homo sapiens, UniProt Q96SW2+Q9UKS7)"
  Dmax: "> 70%"

Form entry - test system: IKZF2 (Homo sapiens, UniProt Q96SW2+Q9UKS7); read-out: Dmax; molecule: CN(c1ccccn1)S(=O)(=O)c1ccc(CN2CCC(c3ccc4c(c3)CN(C3CCC(=O)NC3=O)C4=O)CC2)cc1 (centres unmarked)
30 to 50%

Form entry - test system: IKZF2 (Homo sapiens, UniProt Q96SW2+Q9UKS7); read-out: Dmax; molecule: O=C1CCC(N2Cc3cc(C4(O)CCN(Cc5ccc(C(F)(F)F)cc5)CC4)ccc3C2=O)C(=O)N1 (centres unmarked)
> 70%

Form entry - test system: IKZF2 (Homo sapiens, UniProt Q96SW2+Q9UKS7); read-out: Dmax; molecule: O=C1CCC(N2Cc3cc(C4(O)CCN(Cc5cccc(-c6nccs6)c5)CC4)ccc3C2=O)C(=O)N1 (centres unmarked)
> 70%

Form entry - test system: IKZF2 (Homo sapiens, UniProt Q96SW2+Q9UKS7); read-out: Dmax; molecule: O=C1CCC(N2Cc3cc(C4CCN(Cc5cccc(Nc6ccccc6)c5)CC4)ccc3C2=O)C(=O)N1 (centres unmarked)
50 to 70%

Form entry - test system: IKZF2 (Homo sapiens, UniProt Q96SW2+Q9UKS7); read-out: Dmax; molecule: O=C1CCC(N2Cc3cc(C4(O)CCN(Cc5cccc(F)c5)CC4)ccc3C2=O)C(=O)N1 (centres unmarked)
> 70%

Form entry - test system: IKZF2 (Homo sapiens, UniProt Q96SW2+Q9UKS7); read-out: Dmax; molecule: O=C1CCC(N2Cc3cc(C4(O)CCN(Cc5ccc6c(c5)OCCCO6)CC4)ccc3C2=O)C(=O)N1 (centres unmarked)
> 70%

Form entry - test system: IKZF2 (Homo sapiens, UniProt Q96SW2+Q9UKS7); read-out: Dmax; molecule: O=C1CCC(N2Cc3cc(C4CCN(Cc5ccc(S(=O)(=O)N6CC7C(C6)C7(F)F)cc5)CC4)ccc3C2=O)C(=O)N1 (centres unmarked)
30 to 50%

Form entry - test system: IKZF2 (Homo sapiens, UniProt Q96SW2+Q9UKS7); read-out: Dmax; molecule: N#Cc1cccc(CN2CCC(O)(c3ccc4c(c3)CN(C3CCC(=O)NC3=O)C4=O)CC2)c1 (centres unmarked)
> 70%

Form entry - test system: IKZF2 (Homo sapiens, UniProt Q96SW2+Q9UKS7); read-out: Dmax; molecule: O=C1CCC(N2Cc3cc(C4CCN(Cc5ccc(C(=O)Nc6ccccc6)cc5)CC4)ccc3C2=O)C(=O)N1 (centres unmarked)
50 to 70%

Form entry - test system: IKZF2 (Homo sapiens, UniProt Q96SW2+Q9UKS7); read-out: Dmax; molecule: O=C1CCC(N2Cc3cc(C4CCN(Cc5cccc(Nc6ccc(F)cn6)c5)CC4)ccc3C2=O)C(=O)N1 (centres unmarked)
50 to 70%

Form entry - test system: IKZF2 (Homo sapiens, UniProt Q96SW2+Q9UKS7); read-out: Dmax; molecule: O=C1CCC(N2Cc3cc(C4(O)CCN(Cc5ccc6c(c5)C(=O)N(c5ccccn5)C6)CC4)ccc3C2=O)C(=O)N1 (centres unmarked)
> 70%

Form entry - test system: IKZF2 (Homo sapiens, UniProt Q96SW2+Q9UKS7); read-out: Dmax; molecule: CP(C)(=O)c1ccccc1Nc1cccc(CN2CCC(c3ccc4c(c3)CN(C3CCC(=O)NC3=O)C4=O)CC2)c1 (centres unmarked)
50 to 70%

Form entry - test system: IKZF2 (Homo sapiens, UniProt Q96SW2+Q9UKS7); read-out: Dmax; molecule: O=C1CCC(N2Cc3cc(C4CCN(Cc5ccc6c(c5)C(=O)N(c5ccccc5O)C6)CC4)ccc3C2=O)C(=O)N1 (centres unmarked)
> 70%

Form entry - test system: IKZF2 (Homo sapiens, UniProt Q96SW2+Q9UKS7); read-out: Dmax; molecule: Cc1ccccc1N1Cc2ccc(CN3CCC(c4ccc5c(c4)CN(C4CCC(=O)NC4=O)C5=O)CC3)cc2C1=O (centres unmarked)
50 to 70%
